Test system: UACC-62 melanoma
Test: NCI tumour cell line growth inhibition, 48 h
observationType: TGI

Incoming: Record lookup: for UACC-62 melanoma, what TGI belongs to `C[N+]1(C)C2Cc3ccccc3C1Cc1ccccc12` ?
Outgoing: > 100 µM

Incoming: Please answer likewise for `O=C1C=C(SCCO)C(=O)c2ccccc21`
Outgoing: 3.04 µM

Incoming: Please answer likewise for `O=S(=O)(Nc1ccc(-c2nc(-c3cccc(OCCN4CCOCC4)c3)c(-c3ccnc(Br)c3)[nH]2)cc1)c1ccccc1`
Outgoing: 12.1 µM

Incoming: Please answer likewise for COc1ccc(-c2cc3c4c(nc5ccccc5c4c2)CC(c2cc(OC)c(OC)c(OC)c2)O3)cc1 (stereo not drawn)
Outgoing: 20.1 µM

Incoming: Please answer likewise for `COc1ccc(NC(=S)NN=C(C)c2cccc(C(C)=NNC(=S)Nc3ccc(OC)cc3)n2)cc1`
Outgoing: > 100 µM

Incoming: Please answer likewise for CC12CC3c4ccccc4CN1C3(c1ccccc1)OC2=O (stereo not drawn)
Outgoing: > 100 µM

Incoming: Please answer likewise for N#CC(c1ccc(O)cc1)N1CCN(C(C#N)c2ccc(O)cc2)CC1 (stereo not drawn)
Outgoing: > 100 µM

Incoming: Please answer likewise for `CCCCCCCCCCCCCCCC[N+](C)(C)Cc1ccc(C[N+](C)(C)CCCCCCCCCCCCCCCC)cc1`
Outgoing: > 100 µM

====

Task for the reader: assign each of the following molecules its reported GI50.
Test system: HOP-92 NSCLC
Experiment: NCI tumour cell line growth inhibition, 48 h

Incoming: Which GI50 is listed for `CN(C(=O)c1ccc(F)cc1C(F)(F)F)C1CCN(c2nnc(-c3ccnn3C)c3ccccc23)CC1` ?
Outgoing: 16.5 µM

Incoming: Please answer likewise for `CC1(C)CCC(S(=O)(=O)c2ccc3c(c2)/C(=N\O)c2cc(S(=O)(=O)N4CCC(O)(c5cccc(C(F)(F)F)c5)CC4)ccc2-3)CC1`
Outgoing: 0.517 µM

Incoming: Please answer likewise for `Cc1ccc(S(=O)(=O)N(C)C)cc1[N+](=O)[O-]`
Outgoing: > 100 µM

====

Task for the reader: assign each of the following compounds its reported TGI.
Test system: IGROV1 ovarian
Experiment: NCI tumour cell line growth inhibition, 48 h

Incoming: Which TGI is listed for CCN(CC)c1ccc(NC(C(=O)c2ccccc2)c2ccccc2)cc1 (stereo unspecified) ?
Outgoing: 18.1 µM

Incoming: Please answer likewise for `N#Cc1[nH]c(=O)n(-c2ccc([N+](=O)[O-])cc2)c1N`
Outgoing: > 10 µM

Incoming: Please answer likewise for `N#CI1OC(=O)c2ccccc21`
Outgoing: > 100 µM

Incoming: Please answer likewise for `COc1ccc(NC(=S)NN=C(C)c2cccc(C(C)=NNC(=S)Nc3ccc(OC)cc3)n2)cc1`
Outgoing: > 100 µM

Incoming: Please answer likewise for `Cc1cccc(C)c1NC(=O)CCC(=O)NNC(=O)c1cc(O)c2ccccc2c1`
Outgoing: > 100 µM

Incoming: Please answer likewise for `O=C(NCCNCCO)N/N=C/c1cccc([N+](=O)[O-])c1`
Outgoing: > 100 µM

====

Test system: HOP-92 NSCLC
Assay: NCI tumour cell line growth inhibition, 48 h
observationType: TGI

Incoming: Which TGI is listed for `CS(=O)(=O)NNS(=O)(=O)c1ccc(Br)cc1` ?
Outgoing: > 100 µM

Incoming: Please answer likewise for `C[C@]12CC[C@H](O)CC1=CC[C@@H]1[C@@H]2CC[C@]2(C)C(=O)/C(=C/c3cccc(OCCCn4ccnc4)c3)C[C@@H]12`
Outgoing: 32.3 µM

Incoming: Please answer likewise for `COc1c2nc(CCl)n(C)c(=O)c2c(OC)c2c(=O)n(C)c(CCl)nc12`
Outgoing: > 100 µM
